- ASSAY PROTOCOL: gradient 5% acetonitrile 3 min, to 50% in 2 min, to 85% in 15 min, held 3 min, 100 µL/min
- CONDITION PARAMETERS: column: Zorbax Extend-C18 2.1 x 50 mm; eluents: water / acetonitrile, 0.1% formic acid
QUANTITY: RP-LC retention time (s)

[[record]]
molecule = "CCCCOc1ccc(NC(=O)c2oc3cc(C)ccc3c2C)c2cccnc12"
quantity_unit = "s"
measured = 946

[[record]]
molecule = "CCc1nccn1Cc1nc(-c2cccc(OC)c2OC)no1"
quantity_unit = "s"
measured = 605

[[record]]
molecule = "Cn1c(=O)n(CCN2CCCCC2)c(=O)c2c1nc1n2CCCN1c1ccc(Cl)cc1"
quantity_unit = "s"
measured = 668

[[record]]
molecule = "CN(C(=O)c1cn(-c2ccc(-c3nc(C4CC4)no3)cn2)cn1)C1CCCCC1"
quantity_unit = "s"
measured = 971

[[record]]
molecule = "Cc1cc(C(=O)NCC23CCCC=C2N(CC2CC2)C(=O)CC3)n(C)n1 (stereo not given)"
quantity_unit = "s"
measured = 800


* * *

- ASSAY PROTOCOL: gradient 5% acetonitrile 3 min, to 50% in 2 min, to 85% in 15 min, held 3 min, 100 µL/min
- CONDITION PARAMETERS: column: Zorbax Extend-C18 2.1 x 50 mm; eluents: water / acetonitrile, 0.1% formic acid
QUANTITY: RP-LC retention time (s)

# count of solved cases: 5
[[record]]
molecule = "O=C(Nc1ccc(N2CCOCC2)cc1)c1cn(-c2ccc(F)cc2)nn1"
quantity = "RP-LC retention time"
measured = 828

[[record]]
molecule = "CCn1nccc1-c1cccc(-c2noc(-c3ccc(C#N)cc3)n2)c1"
quantity = "RP-LC retention time"
measured = 1140

[[record]]
molecule = "CCC(C)C(=O)NC1CCN(C2=NS(=O)(=O)C(c3ccc(C(C)C)cc3)=C2C)CC1 (stereo not given)"
quantity = "RP-LC retention time"
measured = 962

[[record]]
molecule = "CCOc1ccc(CNC(=O)C2CCN(S(=O)(=O)c3cn(CC)cn3)CC2)cc1OC"
quantity = "RP-LC retention time"
measured = 676

[[record]]
molecule = "CN(C)C(CNC(=O)c1cc(-c2ccc(Cl)cc2)on1)c1cccs1 (stereo not given)"
quantity = "RP-LC retention time"
measured = 728


A: Cc1ccc(S(=O)(=O)NCCc2nc(-c3cccc(-c4ccnn4C)c3)no2)cc1
B: CN(C)C1(CC2CC2)CCN(C(=O)c2ccoc2)CC1
Ask | Field: entry with larger RP-LC retention time (options A / B ). To answer, give the label that identifies your chosen option.
Reply | A
(A: 917 s, B: 556 s)

* * *

- ASSAY PROTOCOL: gradient 5% acetonitrile 3 min, to 50% in 2 min, to 85% in 15 min, held 3 min, 100 µL/min
- CONDITION PARAMETERS: column: Zorbax Extend-C18 2.1 x 50 mm; eluents: water / acetonitrile, 0.1% formic acid
QUANTITY: RP-LC retention time (s)

[[record]]
compound = "COc1ccccc1NC(=O)N(C)CCc1noc(COc2ccc(Cl)cc2)n1"
quantity = "RP-LC retention time"
measured = 972

[[record]]
compound = "CCCc1noc(-c2ccc3nnc(CC(=O)Nc4ccccc4F)n3c2)n1"
quantity = "RP-LC retention time"
measured = 872

[[record]]
compound = "CN(C)C(=O)Cn1c(=O)c2cccn2c2ccc(F)cc21"
quantity = "RP-LC retention time"
measured = 690

[[record]]
compound = "COc1ccc(-c2nc(C3CC(=O)N(c4ccc(OC)c(OC)c4)C3)no2)cc1F (stereo not given)"
quantity = "RP-LC retention time"
measured = 853

[[record]]
compound = "Cc1cc(S(=O)(=O)N(C)CC2CCOCC2)ccc1Cl"
quantity = "RP-LC retention time"
measured = 963

[[record]]
compound = "CC(NC(=O)c1cccc(N(C)C)c1)C(=O)Nc1nc2ccccc2[nH]1 (stereo not given)"
quantity = "RP-LC retention time"
measured = 603

[[record]]
compound = "CCOc1cc2c(cc1OCC)C1C(C(=O)NCCCOC)c3ccccc3C(=O)N1CC2 (stereo not given)"
quantity = "RP-LC retention time"
measured = 744

[[record]]
compound = "CCOC(=O)CNC(=O)N1CCCCCC1c1ccccc1Cl (stereo not given)"
quantity = "RP-LC retention time"
measured = 911

[[record]]
compound = "COc1ccc(C)cc1NC(=O)CNC(=O)c1ccc(=O)[nH]c1"
quantity = "RP-LC retention time"
measured = 588

[[record]]
compound = "CC(C)Cc1cc(-c2nnc3sc(-c4cccc(N(C)C)c4)nn23)n[nH]1"
quantity = "RP-LC retention time"
measured = 1020

[[record]]
compound = "C=CCN1C(=O)COc2ccc(-c3csc(NC(C)=O)n3)cc21"
quantity = "RP-LC retention time"
measured = 762

[[record]]
compound = "COCCN1C(=O)c2oc3ccc(F)cc3c(=O)c2C1c1ccc([N+](=O)[O-])cc1 (stereo not given)"
quantity = "RP-LC retention time"
measured = 803

[[record]]
compound = "COc1cc(C(=O)N2CCN(c3cc(-c4ccc(Cl)cc4)[nH]n3)CC2)cc(OC)c1OC"
quantity = "RP-LC retention time"
measured = 827

[[record]]
compound = "Cc1nn(CC(=O)N2CCCCC2)c(=O)c2c(-n3cccc3)n(-c3ccc(F)cc3)nc12"
quantity = "RP-LC retention time"
measured = 923

[[record]]
compound = "CCCNC(=O)C1CCCN(c2ccc(SCC(=O)Nc3ccc(Cl)cc3)nn2)C1 (stereo not given)"
quantity = "RP-LC retention time"
measured = 712

[[record]]
compound = "O=C(NCc1nc(-c2ccc(NS(=O)(=O)c3cccs3)cc2)no1)c1ccccc1"
quantity = "RP-LC retention time"
measured = 848

[[record]]
compound = "Cc1ccsc1C(=O)N1CCC2(CC1)N=C(c1cccc(Br)c1)NO2"
quantity = "RP-LC retention time"
measured = 922

[[record]]
compound = "O=S(=O)(c1ccc(F)c(Cl)c1)N1CCC(OCc2noc(C3CCCO3)n2)CC1 (stereo not given)"
quantity = "RP-LC retention time"
measured = 973

[[record]]
compound = "Cn1cc(-c2ccccc2)cc1C(=O)NCc1ccc(N2CCOCC2)cc1"
quantity = "RP-LC retention time"
measured = 892

[[record]]
compound = "O=C(NCc1ccc(F)cc1Cl)C1CCCN(c2nn3c(=O)c4c(nc3s2)CCCC4)C1 (stereo not given)"
quantity = "RP-LC retention time"
measured = 827


* * *

- ASSAY PROTOCOL: gradient 5% acetonitrile 3 min, to 50% in 2 min, to 85% in 15 min, held 3 min, 100 µL/min
- CONDITION PARAMETERS: column: Zorbax Extend-C18 2.1 x 50 mm; eluents: water / acetonitrile, 0.1% formic acid
QUANTITY: RP-LC retention time (s)

[[record]]
molecule = "Nc1ncncc1-c1ccc2ccccc2c1"
quantity_unit = "s"
measured = 668

[[record]]
molecule = "CCc1ccc(S(=O)(=O)N2CC(F)(F)C[C@H]2CN2CCc3ccccc3C2)cc1"
quantity_unit = "s"
measured = 808

[[record]]
molecule = "O=S(=O)(c1ccc2c(c1)OCCO2)N1CCC(Cc2nc(-c3cccnc3)n[nH]2)C1 (stereo not drawn)"
quantity_unit = "s"
measured = 633

[[record]]
molecule = "CC(C)c1ccc(-c2ccc(=O)n(CCc3nc(-c4ccc5c(c4)OCO5)no3)n2)cc1"
quantity_unit = "s"
measured = 1140

[[record]]
molecule = "Cc1ccc(NC(=O)C2CCN(S(C)(=O)=O)c3cc(Cl)ccc3O2)cc1C (stereo not drawn)"
quantity_unit = "s"
measured = 1090


P: COc1ccc(CN2C(=O)CSc3c(c4ccccc4n3C)C2C(=O)NCCCOC(C)C)cc1 (stereo not drawn)
Q: O=C1CCCN1CCCN(CC(=O)N1CCNCC1)C(=O)c1ccc(F)c(Cl)c1
Ask | Which entry shows the lesser value of RP-LC retention time here, P or Q ? To answer, give the label that identifies your chosen option.
Reply | Q

P: Cc1ccc(NC(=O)N2CCC(c3nc(C(=O)N4CCCC4)c(C)o3)CC2)cc1C
Q: Cc1ccc2nc(C(=O)NCc3ccc(N(C)C)cc3)cn2c1
Ask | Field: entry with larger RP-LC retention time (options P / Q ). To answer, give the label that identifies your chosen option.
Reply | P

* * *

- ASSAY PROTOCOL: gradient 5% acetonitrile 3 min, to 50% in 2 min, to 85% in 15 min, held 3 min, 100 µL/min
- CONDITION PARAMETERS: column: Zorbax Extend-C18 2.1 x 50 mm; eluents: water / acetonitrile, 0.1% formic acid
QUANTITY: RP-LC retention time (s)

[[record]]
molecule = "COc1ccc(-c2nnc(-c3cccnc3N3CCC4(CC3)OCCO4)o2)cc1"
quantity = "RP-LC retention time"
measured = 875

[[record]]
molecule = "COc1ccc(NC(=O)N2CCN(c3cc(C)nc(N4CCOCC4)n3)CC2)c(OC)c1"
quantity = "RP-LC retention time"
measured = 589

[[record]]
molecule = "Nc1ccc(C(=O)c2ccccc2)cc1[N+](=O)[O-]"
quantity = "RP-LC retention time"
measured = 783

[[record]]
molecule = "Cc1cc(NC(=O)Nc2ccc3nnc(C4CCC4)n3c2)ccc1Br"
quantity = "RP-LC retention time"
measured = 903

[[record]]
molecule = "CC1CN(C(=O)c2cccc3c2-c2ccccc2C3=O)CC(C)O1 (stereo not given)"
quantity = "RP-LC retention time"
measured = 754

